Tested on: NCI-H522 (non-small cell lung cancer) cells
Assay: NCI-60 five dose screen, NCI-H522
Details: read-out: LC50; NCI-H522, Non-small Cell Lung Cancer
MEASUREMENT_TYPE: CC50 (µM)
Provide the reading as a plain figure in µM.

// CC50 value for CC(=O)O[C@@H]1C[C@H]2C(C)(C)CCC[C@]2(C)C2=C1C(=O)C(C(C)C)=C(O)C2=O : 9.02

---

Conditions: read-out: LC50; melanoma cell line SK-OV-3 (so in the source), most sensitive to cell death
MEASUREMENT_TYPE: CC50 (µM)
Form entry: value (µM) — number only.

For reference, reported CC50 for CC(=O)O[C@@H]1C[C@H]2C(C)(C)CCC[C@]2(C)C2=C1C(=O)C(C(C)C)=C(O)C2=O stands at 4.34

---

System: leukemia cell lines
Settings: read-out: LC50; each leukemia cell line; not reached at highest concentration tested
MEASUREMENT_TYPE: CC50

The reported CC50 of the compound CC(=O)O[C@@H]1C[C@H]2C(C)(C)CCC[C@]2(C)C2=C1C(=O)C(C(C)C)=C(O)C2=O was > 100 µM

---

System: MDA-MB-468 (breast cancer) cells
Assay: NCI-60 five dose screen, MDA-MB-468
Settings: read-out: LC50; MDA-MB-468, Breast
MEASUREMENT_TYPE: CC50 (µM)
Express it in µM; write the number only.

Tested system MDA-MB-468 (breast cancer) cells; CC50 recorded for CC(=O)O[C@@H]1C[C@H]2C(C)(C)CCC[C@]2(C)C2=C1C(=O)C(C(C)C)=C(O)C2=O was 9.46

---

Tested on: SF-295 (CNS cancer) cells
Experiment: NCI-60 five dose screen, SF-295
Settings: read-out: LC50; SF-295, CNS
MEASUREMENT_TYPE: CC50 (µM)
State just the number; it will be interpreted in µM.

Value of CC50 reported for the molecule CC(=O)O[C@@H]1C[C@H]2C(C)(C)CCC[C@]2(C)C2=C1C(=O)C(C(C)C)=C(O)C2=O is 7.37

---

Tested on: A498 (renal cancer) cells
Test: NCI-60 five dose screen, A498
Details: read-out: LC50; A498, Renal
MEASUREMENT_TYPE: CC50

Per the records, this compound ( CC(=O)O[C@@H]1C[C@H]2C(C)(C)CCC[C@]2(C)C2=C1C(=O)C(C(C)C)=C(O)C2=O ) has CC50 equal to 5.19 µM

---

Test system: RXF 393 (renal cancer) cells
Assay: NCI-60 five dose screen, RXF 393
Conditions: read-out: LC50; RXF 393, Renal
MEASUREMENT_TYPE: CC50

Entry CC(=O)O[C@@H]1C[C@H]2C(C)(C)CCC[C@]2(C)C2=C1C(=O)C(C(C)C)=C(O)C2=O ; CC50 = 5.87 µM

---

MEASUREMENT_TYPE: CC50 (µM)
Value expressed in µM; do not type the unit.

Record CC(=O)O[C@@H]1C[C@H]2C(C)(C)CCC[C@]2(C)C2=C1C(=O)C(C(C)C)=C(O)C2=O [7-acetoxyroyleanone] / SK-MEL-5 (melanoma) cells, CC50 recorded as 4.34

---

System: HOP-92 (non-small cell lung cancer) cells
Test: NCI-60 five dose screen, HOP-92
Conditions: read-out: LC50; HOP-92, Non-small Cell Lung Cancer
MEASUREMENT_TYPE: CC50 (µM)
Answer with a number only, understood to be in µM.

The recorded CC50 with HOP-92 (non-small cell lung cancer) cells for CC(=O)O[C@@H]1C[C@H]2C(C)(C)CCC[C@]2(C)C2=C1C(=O)C(C(C)C)=C(O)C2=O was 5.4

Recorded values, source patent US20180353457A1.
